Experiment: chemical genetic growth profiling, strain panel (AID 1159580);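 note: tested at 20 µM; growth read once vehicle control cultures reached saturation at 30 °C; 1 = growth at the plate median or of vehicle wells; lower values mean less growth of the strain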
Conditions: S. cerevisiae deletion strains, growth OD, locus YBR231C, strain swc5, hits give low values
The campaign covered roughly 5,500 compounds. About 2,000 (36%) were called active. Not shown: some 18% with an inconclusive outcome. Some of the results follow.
test.readout: normalized growth
Answer with a bare number; do not write a unit.

Exercise: Given the entry "Cc1cc(O)ccc1Cl" , report its measured normalized growth.
Key: 0.993

Exercise: Given the entry CC(C)=CCCC1(C)C=Cc2c(O)c3c(c(CC=C(C)C)c2O1)OC12C(=CC4CC1C(C)(C)OC2(C/C=C(/C)C(=O)O)C4=O)C3=O (stereo not given) , report its measured normalized growth.
Key: 0.559

Exercise: Given the entry "CNCc1ccccc1" , report its measured normalized growth.
Key: 1.01

Exercise: Given the entry "COc1ccc2c(c1)c(CC(=O)O)c(C)n2C(=O)c1ccc(Cl)cc1" , report its measured normalized growth.
Key: 0.972

Exercise: Given the entry "N=C(N)c1ccc(OCCCCCOc2ccc(C(=N)N)cc2)cc1" , report its measured normalized growth.
Key: 0.919

---

Assay: chemical genetic growth profiling, strain panel (AID 1159580)
Conditions: S. cerevisiae deletion strains, growth OD, locus YHR142W, strain chs7
Screen size: about 5,500 compounds; about 2,000 (36%) were called active. Another 18% or so got no clear call; they are omitted. Rule as the data show it: active = normalized growth mostly below about 0.91 (no sharp cut-off); inconclusive = no clear call, values can overlap the other calls; inactive = mostly above about 0.92. This is one part of the list.
Lab note: assign the record to one of active, inactive

Exercise: GET /call?item= CC(C)CCCC1(C)C=Cc2c(O)c3c(c(CCC(C)C)c2O1)OC12C(CC4CC1C(C)(C)OC2(CCC(C)C(=O)O)C4O)C3=O (stereo unspecified) returns the recorded outcome of this test.
Key: inactive

Exercise: GET /call?item= "NNc1nncc2ccccc12" returns the recorded outcome of this test.
Key: inactive

Exercise: GET /call?item= C#C[C@]1(OC(C)=O)CCC2C3CCC4=CC(=O)CC[C@@H]4C3CC[C@@]21C (stereo partly specified) returns the recorded outcome of this test.
Key: inactive

Exercise: GET /call?item= "CC(C)(Sc1cc(C(C)(C)C)c(O)c(C(C)(C)C)c1)Sc1cc(C(C)(C)C)c(O)c(C(C)(C)C)c1" returns the recorded outcome of this test.
Key: inactive

Exercise: GET /call?item= "FC(F)(F)c1ccccc1-n1ccnc1" returns the recorded outcome of this test.
Key: inactive

Exercise: GET /call?item= "O=c1[nH]cc(F)c(=O)[nH]1" returns the recorded outcome of this test.
Key: active

---

Experiment: chemical genetic growth profiling, strain panel (AID 1159580)
Details: S. cerevisiae deletion strains, growth OD, locus YML032C, strain rad52, hits give low values
The whole screen tested about 5,500 compounds, of which about 2,000 (36%) were called active. Another 18% or so got no clear call; they are omitted. This is one part of the list. Where a SMILES comes first, the peptide text is derived from it. The star is where a group is joined. For = O=C*
test.readout: normalized growth

Worked set:
molecule	observed.measurement
Nc1c2c(nc3ccccc13)CCCC2	1.01 (inactive)
C[C@@H]1OC(O[C@H]2[C@H](O)[C@@H](O)[C@H](OC[C@H]3O[C@@H](OC(=O)[C@]45CCC(C)(C)CC4C4=CCC6[C@@]7(C)CC[C@H](OC8OC[C@H](O)[C@H](O)[C@H]8OC8O[C@@H](C)[C@H](O)[C@@H](O)[C@H]8O)[C@@](C)(CO)C7CC[C@@]6(C)[C@]4(C)CC5)[C@H](O)[C@@H](O)[C@@H]3O)O[C@@H]2CO)[C@H](O)[C@H](O)[C@H]1O (stereo partly specified)	0.986 (inactive)
CCCCCCCCCCCC[C@H](C(=O)O)[C@@H](C)C(=O)O	1.01 (inactive)
CC(=O)OC1CC[C@@]2(C)C(CC[C@]3(C)C2CCC2C4CC(C)(C)CCC4(C(=O)O)CC[C@]23C)C1(C)C (stereo partly specified)	0.987 (inactive)
CC(=O)O[C@@H]1CC[C@@]2(C)C(CC[C@]3(C)C2CC=C2C4CC(C)(C)CC[C@]4(C(=O)O)CC[C@]23C)C1(C)C (stereo partly specified)	1.01 (inactive)
CC(C)=CCCC1(C)C=Cc2c(O)c3c(c(CC=C(C)C)c2O1)OC12C(CC4CC1C(C)(C)OC2(C/C=C(/C)C(=O)O)C4O)C3=O (stereo unspecified)	0.978 (inactive)
CC(=O)O[C@H]1CC[C@@]2(C)C(CC[C@]3(C)C2C(=O)C=C2C4[C@@H](C)[C@H](C)CC[C@]4(C(=O)O)CC[C@]23C)C1(C)C (stereo partly specified)	0.981 (inactive)
CC(=O)NC(C(=O)O)C(C)(C)SN=O (stereo unspecified)	0.979 (inactive)

Exercise: Given the entry "CC(C)(C#N)O[C@@H]1O[C@H](CO)[C@@H](O)[C@H](O)[C@H]1O" , report its measured normalized growth.
Key: 1.01 (inactive)

Exercise: Given the entry "COC(=O)Nc1nc2ccc(Sc3ccccc3)cc2[nH]1" , report its measured normalized growth.
Key: 1 (inactive)

Exercise: Given the entry CSCCC(NC=O)C(=O)NC(Cc1ccccc1)C(=O)O (stereo not drawn) (For-Met-Phe-OH; configuration not given here) , report its measured normalized growth.
Key: 1.02 (inactive)

---

Overview of recorded normalized growth for various molecules
Assay: chemical genetic growth profiling, strain panel (AID 1159580);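 note: tested at 20 µM; growth read once vehicle control cultures reached saturation at 30 °C; 1 = growth at the plate median or of vehicle wells; lower values mean less growth of the strain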
Conditions: S. cerevisiae deletion strains, growth OD, locus YJL187C, strain SWE1, hits give low values
Hit rate of the full screen: of about 5,500 compounds, about 2,000 (36%) were called active. Roughly 18% stayed inconclusive and do not appear here. The list shows a part of the results.
Answer with a bare number; do not write a unit.

Worked set:
> print(dat)
                                   molecule  observed.measurement
1   N#C/C(NCc1cccs1)=C(\C#N)NCc1c(F)cccc1Cl                     1
2  COC(=O)c1cccc(NC(=O)CC2C(=O)NCCN2C(=O)c2cccs2)c1 (stereo not drawn)                 0.989
3     O=C(CSCc1c(F)cccc1Cl)Nc1ccc(F)c(Cl)c1                 0.875
4  COC(=O)C1Cc2c([nH]c3ccccc23)C2(CCN(C)CC2)N1 (stereo not drawn)                 0.996
5           O=C(NC1Cc2ccccc2C1)c1cncc(Br)c1                  1.01
6       Nc1ccc(S(=O)(=O)Nc2cnc3ccccc3n2)cc1                  1.01
7  COC(=O)Nc1nc2ccc(S(=O)c3ccccc3)cc2[nH]1 (stereo not drawn)                 0.984

Exercise: Given the entry COc1ccccc1C1OC(=O)CC1C(=O)O (stereo not drawn) , report its measured normalized growth.
Key: 1.01

---

Test: chemical genetic growth profiling, strain panel (AID 1159580);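 note: tested at 20 µM; growth read once vehicle control cultures reached saturation at 30 °C; 1 = growth at the plate median or of vehicle wells; lower values mean less growth of the strain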
Conditions: S. cerevisiae deletion strains, growth OD, locus YPL241C, strain CIN2
In all, about 5,500 compounds went through this assay and about 2,000 (36%) were called active. Roughly 18% stayed inconclusive and do not appear here. Cut-off read from the data, not from the text of the source: active = normalized growth mostly below about 0.91 (no sharp cut-off); inconclusive = no clear call, values can overlap the other calls; inactive = mostly above about 0.92. The list shows a part of the results.
Lab note: assign the record to one of active, inactive

> print(dat)
                                   molecule  assigned.category
1  CC(=O)O[C@H]1CC[C@@]2(C)C(CC[C@]3(C)C2C(=O)C=C2C4[C@@H](C)[C@H](C)CC[C@]4(C(=O)O)CC[C@]23C)C1(C)C (stereo partly drawn)           inactive
2   COC(=O)Nc1nc2ccc(C(=O)c3ccccc3)cc2[nH]1             active
3  O=[N+]([O-])c1cnc(Sc2n[nH]c(-c3cccs3)n2)s1             active

Let's switch to this molecule now.
Exercise: GET /call?item= "O=C1CC(CSc2ccc(Cl)cc2)=NN1" returns the recorded outcome of this test.
Key: active

---

Assay: chemical genetic growth profiling, strain panel (AID 1159580);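 note: tested at 20 µM; growth read once vehicle control cultures reached saturation at 30 °C; 1 = growth at the plate median or of vehicle wells; lower values mean less growth of the strain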
Conditions: S. cerevisiae deletion strains, growth OD, locus YBR231C, strain swc5, hits give low values
Hit rate of the full screen: of about 5,500 compounds, about 2,000 (36%) were called active. Roughly 18% stayed inconclusive and do not appear here. The list shows a part of the results.
test.readout: normalized growth

Worked set:
compound	test.readout	observed.measurement
O=C(O)CC(O)(CC(=O)O)C(=O)O	normalized growth	1.01 (inactive)
OC(CCN1CCCCC1)(c1ccccc1)C1CCCCC1 (configuration not stated)	normalized growth	0.957 (inactive)
COC(=O)Nc1nc2ccc(S(=O)c3ccccc3)cc2[nH]1 (configuration not stated)	normalized growth	0.993 (inactive)
CCN1C[C@]2(OC(=O)c3ccccc3NC(C)=O)CCC(OC)[C@]34C1[C@H](CC23)[C@@]1(O)CC(OC)[C@H]2CC4C1(O)[C@H]2OC (some centres not stated)	normalized growth	0.972 (inactive)
CC1(C)CC[C@]2(C(=O)O)CC[C@]3(C)C(=CCC4[C@@]5(C)CC[C@@H](O)C(C)(C)C5CC[C@]43C)C2C1 (some centres not stated)	normalized growth	1.02 (inactive)

Exercise: Given the entry CCC(C)C(=O)O[C@H]1[C@H](O)C2C(CN3CC(C)CCC3[C@@]2(C)O)C2C[C@]34O[C@]5(O)C(OC(=O)C(C)(O)CC)CC[C@@]3(C)C5C(OC(C)=O)[C@@H](OC(C)=O)C4[C@@]21O (some centres not stated) , report its measured normalized growth.
Key: 1.01 (inactive)

Exercise: Given the entry C[C@]12CCC(=O)C=C1CCC1C2[C@@H](O)C[C@@]2(C)C1CC[C@]2(O)C(=O)CO (some centres not stated) , report its measured normalized growth.
Key: 1 (inactive)

Exercise: Given the entry "CC(C)(Sc1cc(C(C)(C)C)c(O)c(C(C)(C)C)c1)Sc1cc(C(C)(C)C)c(O)c(C(C)(C)C)c1" , report its measured normalized growth.
Key: 0.998 (inactive)

Exercise: Given the entry CC(=O)/C=C\[C@@H]1[C@@]2(C)CCCC(C)(C)C2CC[C@@]1(C)O (some centres not stated) , report its measured normalized growth.
Key: 0.988 (inactive)

Exercise: Given the entry CCCCCCCCCCCCCCC(C(=O)O)C(O)(CC(=O)OC)C(=O)O (configuration not stated) , report its measured normalized growth.
Key: 0.986 (inactive)

Exercise: Given the entry "NCCC(=O)N[C@@H](Cc1cnc[nH]1)C(=O)O" , report its measured normalized growth.
Key: 1.01 (inactive)

Exercise: Given the entry CC(=O)NC(C(=O)O)C(C)(C)SN=O (configuration not stated) , report its measured normalized growth.
Key: 0.996 (inactive)
